Assay: MT1-MMP gene expression reporter suppression – cell-based, luciferase reporter, luminescence (AID 618);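 further: actives suppress MT1-MMP promoter-driven transcription so potencies describe inhibitors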
Conditions: MT1-MMP promoter luciferase reporter cells
The whole screen tested about 87,000 compounds, of which about 540 (0.62%) were called active. How the calls were made is not given here. The full list was thinned out, with actives kept by preference. Results with a measured potency or affinity are listed apart.
Log the outcome using a class from 1 (yes) for active, 0 (no) for inactive

Solved entries:
• CCCCn1c(O)c(C=NC2CC3CCC2(C)C3(C)C)c(=O)[nH]c1=O (configuration not stated) = 0 (no)
• CCCCn1c(O)c(C(C)=Nc2c(C)n(C)n(-c3ccccc3)c2=O)c(=O)[nH]c1=O = 0 (no)
• Cn1c(O)c(C=NCc2cccs2)c(=O)n(C)c1=O = 0 (no)
• CN1CCN(C(=O)COc2ccc(-c3nc4ccccc4s3)cc2)CC1 = 1 (yes)
• CCOc1cc(-c2nc3c(C)cccn3c2NCC2CCCO2)ccc1O (configuration not stated) = 0 (no)

Prompt: What did the test return for CC12CN3CC(C)(CN(C1)P3(=O)Oc1ccccc1)C2=O (configuration not stated) ?
Completion: 0 (no)
